Target: GSK3β (h) (Homo sapiens)
Sequence (P49841 whole entry): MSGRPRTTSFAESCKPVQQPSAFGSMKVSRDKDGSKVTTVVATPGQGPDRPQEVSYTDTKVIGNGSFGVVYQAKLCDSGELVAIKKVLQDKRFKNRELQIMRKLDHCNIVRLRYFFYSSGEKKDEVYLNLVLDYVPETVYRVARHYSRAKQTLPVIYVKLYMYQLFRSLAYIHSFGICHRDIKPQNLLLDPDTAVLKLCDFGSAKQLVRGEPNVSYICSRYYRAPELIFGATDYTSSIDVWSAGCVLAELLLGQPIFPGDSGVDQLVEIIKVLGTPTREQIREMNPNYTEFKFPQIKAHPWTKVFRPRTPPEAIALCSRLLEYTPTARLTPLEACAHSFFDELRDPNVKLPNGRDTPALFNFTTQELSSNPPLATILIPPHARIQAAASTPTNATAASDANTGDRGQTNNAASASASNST
Experiment: GSK-3β human kinase inhibition, SPA
Type: biochemical
Conditions: read-out: GSK3b pIC50 (converted)
IC50 for assorted compounds
READOUT KIND: IC50

[[record]]
smiles_string = "COc1cc2cc(c1)Nc1nccc(n1)-c1ccc(OC)c(c1)CN(C)CCCNC(=O)[C@@H]1CCCN1C2"
measured_on = "GSK3β (h) (Homo sapiens)"
result = "> 10 µM"

[[record]]
smiles_string = "COc1ccc2cc1CN(C)CCCNC(=O)C1CCN(CC1)Cc1cc(cc(NC(C)C)c1)Nc1nccc-2n1"
measured_on = "GSK3β (h) (Homo sapiens)"
result = "> 10 µM"

[[record]]
smiles_string = "COc1ccc2cc1CN(C)CCNC(=O)C1CCN(CC1)Cc1cc(NCCc3ccccc3)cc(c1)Nc1nccc-2n1"
measured_on = "GSK3β (h) (Homo sapiens)"
result = "> 10 µM"

